For each entry below, report its Drug uptake value.
# Tested on: Thyroid gland
# assay_name: Biodistribution in ICR mouse thyroid at 5 to 10 uCi, iv after 2 mins
# Type: ADME, organism-based
# run_parameters: in vivo
Answers are plain numbers, in % ID/g.

Reference set (3 entries):
>>> observed_value("CN(C)c1ccc(-c2cn(-c3ccc([125I])cc3)nn2)cc1")
3.17
>>> observed_value("CN(C)c1ccc(-c2cn(-c3ccc(OCC[18F])cc3)nn2)cc1")
1.41
>>> observed_value("CNc1ccc(-c2cn(-c3ccc([125I])cc3)nn2)cc1")
4.38

Lab note: next molecule to report on.
Fill in the recorded Drug uptake for this molecule, with Thyroid gland as test system: CN(C)c1ccc(-c2cn(-c3ccc(OCCC[18F])cc3)nn2)cc1 1.57
